Parameter growth: see the listing below.
- Tested on: A498 renal
- assay summary: NCI-60 one-dose screen, 48 h (100 = growth as untreated, 0 = no growth, -100 = all killed)
- condition notes: 10 µM unless noted
The panel holds about 83,000 compounds, 20% with a hit somewhere; the sample as a whole holds those more often.

{"chem smiles": "COc1ccc([C@@H]2[C@@H](O)C(=O)N2c2cc(OC)c(OC)c(OC)c2)cc1Cl", "growth [%]": -16.9}
{"chem smiles": "CCN(CC)c1ccc2cc(C(=O)NCCOCCOCCOCCn3cc(CCC(=O)Nc4ccc(C(=O)c5ccc(NC(=O)OC(C)(C)C)cc5)cc4)nn3)c(=O)oc2c1", "growth [%]": 84.8}
{"chem smiles": "C=CCn1c(SCC(=O)Nc2cccc(C(=O)/C=C/c3ccccc3Cl)c2)nc2ccccc2c1=O", "growth [%]": 82.8}
{"chem smiles": "CCNC(=NCCCN(C)C)N/C(N)=N/c1nc2ccccc2s1", "growth [%]": 111}
{"chem smiles": "C=CCn1c(SCC(=O)Nc2cccc(C(=O)/C=C/c3cc(OC)c(OC)c(OC)c3)c2)nc2ccccc2c1=O", "growth [%]": 75.6}
{"chem smiles": "O=S(=O)(Nc1ccc(C2CC2)cc1)c1ccc(-c2cnc(C3CC3)o2)cc1", "growth [%]": 60}
{"chem smiles": "O=c1c2c(O)cccc2oc2c3c(cc(O)c12)O[C@H]1OC=C[C@@H]31", "growth [%]": 89.1}
{"chem smiles": "COc1cc2cc(Oc3ccc(NC(=O)Nc4cccc(C(F)(F)F)c4)cc3)c(C)nc2cc1OCCN(C)C", "growth [%]": 106}
{"chem smiles": "C#C[C@]1(O)CC[C@H]2[C@@H]3CC=C4c5sc(Nc6ccc(OC)nc6)nc5CC[C@]4(C)[C@H]3CC[C@@]21C", "growth [%]": 25.9}
{"chem smiles": "CCC(=O)Nc1cc(Nc2cc(NC3CC3)n3ncc(C#N)c3n2)ccc1C", "growth [%]": -21.5}
{"chem smiles": "CCCCCCCCNC(=O)c1ccc(Cn2c(CCCC)nc3c(N)nc4ccccc4c32)cc1", "growth [%]": 68}
{"chem smiles": "COc1ccc(S(=O)(=O)n2cc(C=O)c3ccccc32)c(OC)c1", "growth [%]": 92.4}
{"chem smiles": "Oc1ccc(CSc2nnc(-c3ccc(Oc4ccccc4)cc3)n2-c2ccccc2)c2cccnc12", "growth [%]": 35.2}
{"chem smiles": "Oc1ccc(CSc2nnc(-c3ccc(Br)cc3)o2)c2cccnc12", "growth [%]": 74.5}
